Documented GI50 across a set of compounds
# Test system: KM-20L2
# assay.notes: NCI tumour cell line growth inhibition, 48 h
Structures can show the parent of a compound that is named as a salt. Activity calls are given as the source filed them. Cut-off read from the data, not from the text of the source: active = GI50 up to about 1.1 µM and inactive = higher.

[Q] Report GI50 for C=C(CS(=O)(=O)c1ccccc1)C(=O)OCC please.
[A] 21.8 µM (inactive)

[Q] Report GI50 for CC(=O)OCC1OC(n2cc(I)c(=O)[nH]c2=O)C(OC(C)=O)C(OC(C)=O)C1OC(C)=O (stereo not given) please.
[A] > 100 µM (inactive)

[Q] Report GI50 for C1COCCSC2=C(SCCO1)SC(=C1SC3=C(SCCOCCOCCS3)S1)S2 please.
[A] > 100 µM (inactive)

[Q] Report GI50 for Cn1c2c(c3ccccc31)CCN(CCCCN1CCCCC1)C2=O please.
[A] > 100 µM (inactive)

[Q] Report GI50 for COC(=O)C12C34C=CC5(CCC6(C=CC1(CC3)O6)C52C(=O)OC)O4 (stereo not given) please.
[A] > 100 µM (inactive)

[Q] Report GI50 for c1ccc(COc2cccc3cccnc23)cc1 please.
[A] > 100 µM (inactive)

[Q] Report GI50 for COc1ccc2cc3[n+](cc2c1OC)CCc1cc2c(cc1-3)OCO2 [BERBERINE SULFATE] please.
[A] 30.8 µM (inactive)
